- assay: Particle size distribution by laser light diffraction (Malvern Mastersizer 2000, Fraunhofer)
- Assay type: physicochemical
- reportedConditions: cumulative volume
measure: D10 (PSD10) (μm)

CC(C)(CCCCOCCCCC(C)(C)C(=O)[O-])C(=O)[O-].[Ca+2] [Sample 1] :: 6.3
CC(C)(CCCCOCCCCC(C)(C)C(=O)[O-])C(=O)[O-].[Ca+2] [Sample 5] :: 7.8
CC(C)(CCCCOCCCCC(C)(C)C(=O)[O-])C(=O)[O-].[Ca+2] [Sample 9] :: 17
CC(C)(CCCCOCCCCC(C)(C)C(=O)[O-])C(=O)[O-].[Ca+2] [Sample 7] :: 5.4
CC(C)(CCCCOCCCCC(C)(C)C(=O)[O-])C(=O)[O-].[Ca+2] [Sample 3] :: 5.3
CC(C)(CCCCOCCCCC(C)(C)C(=O)[O-])C(=O)[O-].[Ca+2] [Sample 8] :: 8.2
CC(C)(CCCCOCCCCC(C)(C)C(=O)[O-])C(=O)[O-].[Ca+2] [Sample 2] :: 4.8
CC(C)(CCCCOCCCCC(C)(C)C(=O)[O-])C(=O)[O-].[Ca+2] [Sample 6] :: 7.8
CC(C)(CCCCOCCCCC(C)(C)C(=O)[O-])C(=O)[O-].[Ca+2] [Sample 4] :: 5.8

###

- assay: Steady-state pharmacokinetics of gemcabene at 300, 600, 900 mg/day in FH patients
- Type: in vivo, human
- reportedConditions: human, plasma, oral, 900 mg/day, 900 mg/day (3× Tablet D), steady state, FH patients, mean, n=7; read-out: AUC0-24
measure: AUC(0-t) (µg·h/mL)

CC(C)(CCCCOCCCCC(C)(C)C(=O)O)C(=O)O :: 3530

###

- assay: Steady-state plasma gemcabene pharmacokinetics, 600 mg daily, healthy female subjects
- Format: in vivo
- reportedConditions: human, oral, Day 6, Treatment B, read-out: mean plasma gemcabene trough concentration
measure: concentration at 6 day (µg/mL)

CC(C)(CCCCOCCCCC(C)(C)C(=O)O)C(=O)O :: 98.8

###

Reported values of D90 (PSD90) for individual entries
- assay: Particle size distribution by laser light diffraction (Malvern Mastersizer 2000, Fraunhofer)
- Type: physicochemical
- reportedConditions: cumulative volume
measure: D90 (PSD90) (μm)

CC(C)(CCCCOCCCCC(C)(C)C(=O)[O-])C(=O)[O-].[Ca+2] [Sample 11] :: 47
CC(C)(CCCCOCCCCC(C)(C)C(=O)[O-])C(=O)[O-].[Ca+2] [Sample 10] :: 55
CC(C)(CCCCOCCCCC(C)(C)C(=O)[O-])C(=O)[O-].[Ca+2] [Sample 9] :: 996
CC(C)(CCCCOCCCCC(C)(C)C(=O)[O-])C(=O)[O-].[Ca+2] [Sample 6] :: 52
CC(C)(CCCCOCCCCC(C)(C)C(=O)[O-])C(=O)[O-].[Ca+2] [Sample 8] :: 48
CC(C)(CCCCOCCCCC(C)(C)C(=O)[O-])C(=O)[O-].[Ca+2] [Sample 7] :: 62
CC(C)(CCCCOCCCCC(C)(C)C(=O)[O-])C(=O)[O-].[Ca+2] [Sample 4] :: 52
CC(C)(CCCCOCCCCC(C)(C)C(=O)[O-])C(=O)[O-].[Ca+2] [Sample 5] :: 431

Data credit: patent US20200148617A1
